Conditions: Ebola virus entry assay, ratio channel
Activity calls are given as the source filed them. How the calls were made is not given here.
Respond with a class label; see active, inactive

A selection of reference data follows.
>>> class_label("CC(C)NCC(O)COc1ccc(CCOCC2CC2)cc1 (stereo unspecified)")
"active"
>>> class_label("CCOC(=O)[C@H](CCc1ccccc1)N[C@@H](C)C(=O)N1Cc2cc(OC)c(OC)cc2C[C@H]1C(=O)O")
"inactive"
>>> class_label("COC(=O)C1=C(C)NC(C)=C(C(=O)OCCN(C)Cc2ccccc2)C1c1cccc([N+](=O)[O-])c1 (stereo unspecified)")
"active"

query: What was the test verdict on `CCCN(CCc1cccs1)[C@H]1CCc2c(O)cccc2C1` ?
result: active

query: What was the test verdict on `CO[C@]12CC[C@@]3(C[C@@H]1[C@](C)(O)C(C)(C)C)[C@@H]1Cc4ccc(O)c5c4[C@@]3(CCN1CC1CC1)[C@H]2O5` ?
result: active

query: What was the test verdict on `CO[C@@]12[C@H](COC(N)=O)C3=C(C(=O)C(C)=C(N)C3=O)N1C[C@@H]1N[C@@H]12` ?
result: inactive

query: What was the test verdict on `CCN(C)C(=O)Oc1cccc([C@H](C)N(C)C)c1` ?
result: inactive

query: What was the test verdict on O=C(c1ccccc1)c1ccc2n1CCC2C(=O)O (stereo unspecified) ?
result: inactive

Reference source for all entries: PubChem BioAssay (NCATS)
